# PROCEDURE_DETAILS: self-splicing fitness, log relative to wild type (ln ratio); higher = more splicing; Tetrahymena group I intron in knt gene, E. coli kanamycin selection, DiMSum; sequences stand for … in CUCUCU…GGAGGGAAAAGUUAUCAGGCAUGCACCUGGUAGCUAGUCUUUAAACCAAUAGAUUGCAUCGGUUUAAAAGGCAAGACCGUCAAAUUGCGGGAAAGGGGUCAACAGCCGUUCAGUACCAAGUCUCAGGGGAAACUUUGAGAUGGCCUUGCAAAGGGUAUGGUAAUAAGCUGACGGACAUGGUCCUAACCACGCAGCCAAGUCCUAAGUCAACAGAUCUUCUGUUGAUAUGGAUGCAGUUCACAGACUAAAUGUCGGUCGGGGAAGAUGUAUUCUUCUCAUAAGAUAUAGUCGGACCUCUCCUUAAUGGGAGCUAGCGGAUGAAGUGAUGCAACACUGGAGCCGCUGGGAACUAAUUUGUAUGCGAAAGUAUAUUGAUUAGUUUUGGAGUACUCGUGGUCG;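 further: selection with 25 µg/mL kanamycin versus none on LB agar overnight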
# CONDITION_LABEL: 30 °C
Measured self-splicing fitness (ln), listed per entry.
MEASUREMENT_NAME: self-splicing fitness (ln)

- UAGGAGCAAUAUUACGGCGU: -3.14
- GCUAAGCAAUAUUACGUUAC: -3.73
- GAGUAGCAAUAUUACGGGCC: -2.52
- AUGUAGCAAUAUUACGUUGC: -3.43
- AUGGAGCAAUAUUACGUUGU: -2.69
- UGAAAGCAAUAUUACGCCGA: -1.61
- AUAAAGCAAUAUUACGUGGG: -2.92
- CGACAGCAAUAUUACGCCUU: -2.4

====

# PROCEDURE_DETAILS: self-splicing fitness, log relative to wild type (ln ratio); higher = more splicing; Tetrahymena group I intron in knt gene, E. coli kanamycin selection, DiMSum; sequences stand for … in CUCUCU…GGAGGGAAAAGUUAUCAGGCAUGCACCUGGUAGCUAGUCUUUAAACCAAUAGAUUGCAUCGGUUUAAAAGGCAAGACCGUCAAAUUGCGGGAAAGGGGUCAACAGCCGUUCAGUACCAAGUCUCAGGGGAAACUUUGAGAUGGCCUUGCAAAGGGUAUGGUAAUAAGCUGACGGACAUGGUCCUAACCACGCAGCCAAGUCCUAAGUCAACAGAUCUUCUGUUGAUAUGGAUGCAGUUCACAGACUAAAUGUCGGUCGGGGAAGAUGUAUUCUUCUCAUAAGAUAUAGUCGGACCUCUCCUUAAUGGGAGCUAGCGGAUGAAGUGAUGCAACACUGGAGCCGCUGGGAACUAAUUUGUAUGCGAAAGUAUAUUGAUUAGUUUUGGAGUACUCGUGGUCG
# CONDITION_LABEL: 37 °C
Measured self-splicing fitness (ln), listed per entry.
MEASUREMENT_NAME: self-splicing fitness (ln)

* UUCCAGCAAUAUUACGAAAG | -2.33
* UUCUAGCAAUAUUACGCCCU | -0.693
* ACCUAGCAAUAUUACGGUUC | -2.62
* AAAUAGCAAUAUUACGGACA | -0.512
* GUACAGCAAUAUUACGCGGG | -2.71
* GUUCAGCAAUAUUACGGCGC | 0.633
* AAGAAGCAAUAUUACGCCAC | -2.7
* ACCGAGCAAUAUUACGGGAU | -2.5
* GCAAAGCAAUAUUACGUUGA | -1.03
* UAUCAGCAAUAUUACGCUUU | -0.159
* CAAUAGCAAUAUUACGUACU | -1.8
* CAUGAGCAAUAUUACGGAAA | -2.17
* ACGCAGCAAUAUUACGUGGA | -2.37
* UACGAGCAAUAUUACGGUGG | -2.13
* GUCCAGCAAUAUUACGAGGG | -1.78
* UAUGAGCAAUAUUACGCUGA | -1.13

Source of measurements: the supplement of paper PMC7877785
